Tested on: human TH17 cells
Test: Inhibition of IL-17 release from human TH17 cells
Format: cell-based
Conditions: Homo sapiens, 96 h, isolated human TH17 cells, 4 days culture, IL-17A by HTRF; read-out: pIC50 IL-17 release (converted)
Text: Inhibition of IL-17 Release from Human TH17 Cells (IL-17 Release) This test is designed to screen compounds for their inhibitory effect on the release of IL-17 from isolated and cultured human TH17 cells. Peripheral blood mononuclear cells (PBMC) were isolated from heparin treated human whole blood fromhealthy donors by density gradient centrifugation. TH17 cells (CD4+CXCR3-CCR6+) were enriched using a human TH17 Cell Enrichment Kit (Stemcell Technologies) according to the manufacturer's protocol. […]
reported metric: IC50 (nM)
Just the number in nM, nothing appended.

Worked examples follow.
compound: COC1(C(=O)N2Cc3cc(S(C)(=O)=O)ccc3C2C(=O)Nc2ccc(C(O)(C(F)(F)F)C(F)(F)F)c(F)c2)CC1 (centres unmarked)
target system: human TH17 cells
IC50 [nM]: 31.6
--
compound: C[C@H](O)CC(=O)N1Cc2cc(S(C)(=O)=O)ccc2C1C(=O)Nc1ccc(C(O)(C(F)(F)F)C(F)(F)F)cc1 (some centres unmarked)
target system: human TH17 cells
IC50 [nM]: 79.4
--
compound: COC(=O)N1Cc2cc(S(=O)(=O)C3CC3)ccc2C1C(=O)Nc1ccc(C(O)(C(F)(F)F)C(F)(F)F)cc1 (centres unmarked)
target system: human TH17 cells
IC50 [nM]: 25.1
--
compound: CC(=O)N1Cc2cc(S(C)(=O)=O)ccc2C1C(=O)Nc1ccc(C(O)(C(F)(F)F)C(F)(F)F)cc1F (centres unmarked)
target system: human TH17 cells
IC50 [nM]: 20
--
compound: CS(=O)(=O)c1ccc2c(c1)CN(C(=O)CCF)C2C(=O)Nc1ccc(C(O)(C(F)(F)F)C(F)(F)F)cc1 (centres unmarked)
target system: human TH17 cells
IC50 [nM]: 31.6
--
compound: COCCS(=O)(=O)c1ccc2c(c1)CN(C(=O)CO)C2C(=O)Nc1ccc(C(O)(C(F)(F)F)C(F)(F)F)cc1 (centres unmarked)
target system: human TH17 cells
IC50 [nM]: 100
--
compound: CS(=O)(=O)c1ccc2c(c1)CN(C(=O)C1(F)CC1)C2C(=O)Nc1ccc(C(O)(C(F)(F)F)C(F)(F)F)cc1 (centres unmarked)
target system: human TH17 cells
IC50 [nM]: 31.6
--
compound: CNS(=O)(=O)c1ccc2c(c1)CN(C(=O)[C@H]1CCCO1)C2C(=O)Nc1ccc(C(O)(C(F)(F)F)C(F)(F)F)cc1 (some centres unmarked)
target system: human TH17 cells
IC50 [nM]: 31.6
--
compound: CC1(C(=O)N2Cc3cc(S(C)(=O)=O)ccc3C2C(=O)Nc2ccc(C(O)(C(F)(F)F)C(F)(F)F)cc2)CCO1 (racemic)
target system: human TH17 cells
IC50 [nM]: 25.1
--
compound: CC(CF)C(=O)N1Cc2cc(S(C)(=O)=O)ccc2C1C(=O)Nc1ccc(C(O)(C(F)(F)F)C(F)(F)F)cc1 (centres unmarked)
target system: human TH17 cells
IC50 [nM]: 12.6

-- ask Which IC50 reading was recorded for the compound CC1(C(=O)N2Cc3cc(S(C)(=O)=O)ccc3C2C(=O)Nc2ccc(C(O)(C(F)(F)F)C(F)(F)F)cc2)COC1 (centres unmarked) ?
-- reply 100

-- ask Which IC50 reading was recorded for the compound CNS(=O)(=O)c1ccc2c(c1)CN(C(=O)C1(OC)CC1)C2C(=O)Nc1ccc(C(O)(C(F)(F)F)C(F)(F)F)cc1 (centres unmarked) ?
-- reply 20

-- ask Which IC50 reading was recorded for the compound C[C@H](F)CC(=O)N1Cc2cc(S(C)(=O)=O)ccc2C1C(=O)Nc1ccc(C(O)(C(F)(F)F)C(F)(F)F)cc1 (some centres unmarked) ?
-- reply 31.6

-- ask Which IC50 reading was recorded for the compound O=CN1Cc2cc(S(=O)(=O)CC3(O)CC3)ccc2C1C(=O)Nc1ccc(C(O)(C(F)(F)F)C(F)(F)F)cc1 (centres unmarked) ?
-- reply 31.6

-- ask Which IC50 reading was recorded for the compound CC(CO)C(=O)N1Cc2cc(S(C)(=O)=O)ccc2C1C(=O)Nc1ccc(C(O)(C(F)(F)F)C(F)(F)F)cc1 (centres unmarked) ?
-- reply 79.4
